Sourced from patent US20240336701A1

Molecular target: T1, human ENTPD2, full length, on cells (human, UniProt Q9Y5L3 1-495)
T1 sequence: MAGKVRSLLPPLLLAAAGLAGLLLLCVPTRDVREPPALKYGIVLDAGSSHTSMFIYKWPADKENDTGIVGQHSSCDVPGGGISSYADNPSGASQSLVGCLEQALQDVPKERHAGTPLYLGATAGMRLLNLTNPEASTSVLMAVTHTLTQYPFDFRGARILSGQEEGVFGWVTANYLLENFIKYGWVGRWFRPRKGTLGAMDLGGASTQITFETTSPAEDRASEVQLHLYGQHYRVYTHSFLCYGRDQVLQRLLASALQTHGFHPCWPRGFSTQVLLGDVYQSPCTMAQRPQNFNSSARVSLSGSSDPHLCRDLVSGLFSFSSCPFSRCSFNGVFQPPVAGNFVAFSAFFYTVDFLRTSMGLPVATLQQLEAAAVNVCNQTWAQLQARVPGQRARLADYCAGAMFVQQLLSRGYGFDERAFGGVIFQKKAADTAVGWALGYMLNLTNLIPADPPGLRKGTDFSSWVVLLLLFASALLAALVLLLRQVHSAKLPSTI
Test: cell-based or functional assay
readout kind: RKO Assay IC50

INSERT INTO measurements (binder, result) VALUES
  ('ANTI-HUMAN ENTPD2 MAB5 (antibody, human IgG1, kappa, V domains shown) VH: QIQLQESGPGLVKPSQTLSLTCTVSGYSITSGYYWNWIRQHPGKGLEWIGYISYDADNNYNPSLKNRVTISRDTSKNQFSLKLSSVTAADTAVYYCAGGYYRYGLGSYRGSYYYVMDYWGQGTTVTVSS VL: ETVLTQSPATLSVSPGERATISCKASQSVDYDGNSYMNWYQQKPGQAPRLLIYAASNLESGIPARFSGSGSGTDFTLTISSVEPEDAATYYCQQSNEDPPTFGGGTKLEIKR', '0.2 nM'),
  ('ANTI-HUMAN ENTPD2 MAB1 (antibody, human IgG1, kappa, V domains shown) VH: EVQLVQSGAEVKKPGESLKISCKASGYTFTDYNMDWVRQMPGKGLEWMGDINPKYDISTYNQQFKGQVTISADKSIRTAYLQWSSLKASDTAMYYCARRGFFLYYGINYYYFDVWGQGTLVTVSS VL: DIQLTQSPSSLSASVGDRVTITCSASSSVSYIHWFQQKPGKAPKLLIYSTSNLASGVPSRFSGSGSGTFFTLTISSLQPEDFATYFCHQWSSYPWTFGQGTKVEIKR', '0.8 nM');

Proceeding to the next binder to report its RKO Assay IC50.
Complete the entry with RKO Assay IC50 for ANTI-HUMAN ENTPD2 MAB9 (antibody, human IgG1, lambda, V domains shown) VH: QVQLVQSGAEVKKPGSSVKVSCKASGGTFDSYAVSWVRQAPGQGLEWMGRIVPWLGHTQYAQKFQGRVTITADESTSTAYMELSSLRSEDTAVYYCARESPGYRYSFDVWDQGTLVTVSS VL: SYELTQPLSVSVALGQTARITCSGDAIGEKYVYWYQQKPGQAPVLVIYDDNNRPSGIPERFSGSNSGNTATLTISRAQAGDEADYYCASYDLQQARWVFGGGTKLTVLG 0.1 nM
